test: Pharmacokinetic study in rats, plasma and brain; format: in vivo; conditions: rat, plasma, po, 10 mg/kg
measurement.label: Cmax (nM)

[[record]]
molecule = "CCc1cccc(N2CCN(C[C@H](O)CCNC(=O)c3cc4ccccc4[nH]3)CC2)c1Cl.Cl [R-VK4-40]"
unit_spec = "nM"
observed_measurement = 310

